Cited source for all entries: BindingDB's records for patent US20250074895

# reported IC50; entries follow
Target: Cyclin-dependent kinase/G2/mitotic-specific cyclin- 1 (Homo sapiens)
Sequence (P06493 whole entry): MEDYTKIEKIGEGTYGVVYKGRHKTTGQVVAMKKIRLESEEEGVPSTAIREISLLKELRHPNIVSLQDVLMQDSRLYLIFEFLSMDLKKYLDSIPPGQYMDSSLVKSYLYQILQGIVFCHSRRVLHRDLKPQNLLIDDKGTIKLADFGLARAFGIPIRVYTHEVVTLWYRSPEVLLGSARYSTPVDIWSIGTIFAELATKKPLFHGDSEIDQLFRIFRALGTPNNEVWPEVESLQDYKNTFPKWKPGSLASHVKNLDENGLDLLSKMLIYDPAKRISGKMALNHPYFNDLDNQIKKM
Sequence (P14635 whole entry, further chain): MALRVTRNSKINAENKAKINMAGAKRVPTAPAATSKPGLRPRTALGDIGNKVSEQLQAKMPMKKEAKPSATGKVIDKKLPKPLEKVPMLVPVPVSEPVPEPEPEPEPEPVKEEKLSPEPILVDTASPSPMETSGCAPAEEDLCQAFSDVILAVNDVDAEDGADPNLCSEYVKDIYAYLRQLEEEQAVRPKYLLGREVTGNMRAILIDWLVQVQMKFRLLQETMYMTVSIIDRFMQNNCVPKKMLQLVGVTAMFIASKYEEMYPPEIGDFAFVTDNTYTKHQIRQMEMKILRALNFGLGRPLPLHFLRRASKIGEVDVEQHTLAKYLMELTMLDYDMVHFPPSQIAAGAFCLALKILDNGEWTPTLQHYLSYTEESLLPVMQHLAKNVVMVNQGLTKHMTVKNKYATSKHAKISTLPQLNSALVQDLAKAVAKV
Test: Biochemical CDK Inhibition Assay

INSERT INTO measurements (query_smiles, experimental_target, endpoint, result) VALUES
  ('CC1(NC(=O)O[C@@H]2CC[C@H](c3cc(Nc4cccnn4)n[nH]3)C2)CC1', 'Cyclin-dependent kinase/G2/mitotic-specific cyclin- 1 (Homo sapiens)', 'IC50', '> 500 nM'),
  ('CC1(NC(=O)O[C@@H]2CC[C@H](c3cc(Nc4cnccn4)n[nH]3)C2)CC1', 'Cyclin-dependent kinase/G2/mitotic-specific cyclin- 1 (Homo sapiens)', 'IC50', '300 nM'),
  ('CC1(NC(=O)O[C@@H]2CC[C@H](c3cc(Nc4cnc(C(C)(C)O)cn4)n[nH]3)C2)CC1', 'Cyclin-dependent kinase/G2/mitotic-specific cyclin- 1 (Homo sapiens)', 'IC50', '300 nM'),
  ('CC1(NC(=O)O[C@@H]2CC[C@H](c3cc(Nc4cnc(CO)cn4)n[nH]3)C2)CC1', 'Cyclin-dependent kinase/G2/mitotic-specific cyclin- 1 (Homo sapiens)', 'IC50', '< 100 nM'),
  ('CC1(NC(=O)O[C@@H]2CC[C@H](c3cc(Nc4cncc(C5CC5)n4)n[nH]3)C2)CC1', 'Cyclin-dependent kinase/G2/mitotic-specific cyclin- 1 (Homo sapiens)', 'IC50', '< 100 nM'),
  ('C[C@@H](O)c1cnc(Nc2cc([C@H]3CC[C@@H](OC(=O)N4CCC4(C)C)C3)[nH]n2)cn1', 'Cyclin-dependent kinase/G2/mitotic-specific cyclin- 1 (Homo sapiens)', 'IC50', '< 100 nM'),
  ('C[C@H](O)c1cnc(Nc2cc([C@H]3CC[C@@H](OC(=O)NC4(C)CC4)C3)[nH]n2)cn1', 'Cyclin-dependent kinase/G2/mitotic-specific cyclin- 1 (Homo sapiens)', 'IC50', '300 nM'),
  ('Cc1nccnc1Nc1cc([C@H]2CC[C@@H](OC(=O)NC3(C)CC3)C2)[nH]n1', 'Cyclin-dependent kinase/G2/mitotic-specific cyclin- 1 (Homo sapiens)', 'IC50', '> 500 nM');

# input # return recorded IC50 for input C[C@@H](O)c1cnc(Nc2cc([C@H]3CC[C@@H](OC(=O)NC4(C)CC4)C3)[nH]n2)cn1
# output 300 nM

# input # return recorded IC50 for input Cc1nc(Nc2cc([C@H]3CC[C@@H](OC(=O)NC4(C)CC4)C3)[nH]n2)cnc1C#N
# output < 100 nM

# input # return recorded IC50 for input Cc1c(C#N)ccnc1Nc1cc([C@H]2CC[C@@H](OC(=O)NC3(C)CC3)C2)[nH]n1
# output > 500 nM

# input # return recorded IC50 for input CC1(NC(=O)O[C@@H]2CC[C@H](c3cc(Nc4cnc(C#N)cn4)n[nH]3)C2)CC1
# output 300 nM
